Test system: Ba/F3 cells
Test: Tumor cell growth inhibition test (CCK8 detection), Ba/F3
Format: cell-based, mouse
Settings: Mus musculus, BaF3, 72 hrs
Item-by-item account of IC50
Give the value, in units of nM, as a plain number.

{"columns": ["molecule", "IC50 / nM"],
 "data": [
  ["Cc1cc(Nc2ncc(Cl)c(Nc3ccccc3S(=O)(=O)C(C)C)n2)c(OC(C)C)cc1C1CCNCC1 [Ceritinib, reference compound]", 2390]
]}

Kindly consider the entry below.
Query: Return value of IC50 for input [2H]C([2H])([2H])C([2H])(Oc1cc(C2CCNCC2)c(C)cc1Nc1ncc(Cl)c(Nc2ccccc2S(=O)(=O)C(C)C)n1)C([2H])([2H])[2H] , no commentary.
Reply: 2890

---

Target: ALK enzyme (Homo sapiens, UniProt Q9UM73)
Sequence (Q9UM73 19-1620 limits assumed): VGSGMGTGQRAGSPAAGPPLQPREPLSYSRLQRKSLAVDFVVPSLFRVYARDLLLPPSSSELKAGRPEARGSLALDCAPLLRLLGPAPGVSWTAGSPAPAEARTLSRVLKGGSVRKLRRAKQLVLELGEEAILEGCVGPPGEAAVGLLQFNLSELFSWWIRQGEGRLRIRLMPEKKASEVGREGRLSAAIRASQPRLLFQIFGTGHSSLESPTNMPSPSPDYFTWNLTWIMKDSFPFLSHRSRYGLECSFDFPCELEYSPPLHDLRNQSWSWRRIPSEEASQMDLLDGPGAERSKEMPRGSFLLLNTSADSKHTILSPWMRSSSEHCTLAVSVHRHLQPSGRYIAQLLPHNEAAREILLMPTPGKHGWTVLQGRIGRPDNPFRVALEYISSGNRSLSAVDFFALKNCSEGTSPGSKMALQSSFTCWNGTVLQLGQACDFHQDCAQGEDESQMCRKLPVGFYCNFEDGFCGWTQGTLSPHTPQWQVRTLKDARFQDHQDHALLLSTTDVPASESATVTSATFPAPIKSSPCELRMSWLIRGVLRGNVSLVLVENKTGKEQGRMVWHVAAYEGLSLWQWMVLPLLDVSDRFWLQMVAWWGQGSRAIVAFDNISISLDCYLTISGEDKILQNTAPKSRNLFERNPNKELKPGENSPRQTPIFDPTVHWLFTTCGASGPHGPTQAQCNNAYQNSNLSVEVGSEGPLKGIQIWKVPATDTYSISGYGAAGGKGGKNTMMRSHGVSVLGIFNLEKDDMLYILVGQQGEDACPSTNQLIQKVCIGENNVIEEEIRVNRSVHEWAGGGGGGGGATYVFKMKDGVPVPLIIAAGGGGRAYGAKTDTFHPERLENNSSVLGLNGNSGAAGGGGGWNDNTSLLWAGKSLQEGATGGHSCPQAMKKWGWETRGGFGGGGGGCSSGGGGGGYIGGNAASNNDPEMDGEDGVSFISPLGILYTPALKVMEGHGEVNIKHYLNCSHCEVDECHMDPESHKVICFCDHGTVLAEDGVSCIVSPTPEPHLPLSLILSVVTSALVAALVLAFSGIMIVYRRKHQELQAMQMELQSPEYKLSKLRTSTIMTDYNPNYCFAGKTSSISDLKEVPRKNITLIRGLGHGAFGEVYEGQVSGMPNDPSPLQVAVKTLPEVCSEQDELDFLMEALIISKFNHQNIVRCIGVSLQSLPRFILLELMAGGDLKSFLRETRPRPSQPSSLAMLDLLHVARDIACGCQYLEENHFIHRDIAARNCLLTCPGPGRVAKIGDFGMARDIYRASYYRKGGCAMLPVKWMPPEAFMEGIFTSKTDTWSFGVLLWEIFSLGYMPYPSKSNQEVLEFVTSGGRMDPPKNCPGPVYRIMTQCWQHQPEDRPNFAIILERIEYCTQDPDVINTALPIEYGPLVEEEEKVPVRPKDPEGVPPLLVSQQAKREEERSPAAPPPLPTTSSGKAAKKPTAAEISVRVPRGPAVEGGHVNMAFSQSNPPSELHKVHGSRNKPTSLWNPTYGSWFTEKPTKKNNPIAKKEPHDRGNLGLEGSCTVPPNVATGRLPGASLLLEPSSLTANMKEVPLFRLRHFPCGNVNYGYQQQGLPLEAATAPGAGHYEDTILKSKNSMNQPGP
Assay: In-vitro ALK kinase inhibitory activity (HTRF kinEASE TK kit)
Type: biochemical
Details: inhibitory activity for ALK enzyme, read-out: IC50 range
pIC50: −log10 of the molar value.
metric: pIC50

{"columns": ["entry smiles", "measurement"],
 "data": [
  ["C=Cc1cnc(Nc2cc(C)c(C3CCNCC3)cc2OC)nc1Nc1ccccc1S(=O)(=O)C(C)C", "8.00 to 9.00"],
  ["CCOc1cc(C2CCNCC2)ccc1Nc1ncc(Cl)c(Nc2ccccc2S(=O)(=O)C(C)C)n1", "8.00 to 9.00"],
  ["COc1cc(C2CCNCC2)c(C)cc1Nc1ncc(F)c(Nc2ccccc2S(=O)(=O)C(C)C)n1", "8.00 to 9.00"]
]}

Query: Return value of pIC50 for input COc1cc(N2CCC(N(C)C)CC2)ccc1Nc1nc(Nc2ccccc2S(=O)(=O)C(C)C)c2ccsc2n1 , no commentary.
Reply: 7.00 to 8.00
